B1: library; numbered along this chain (parent)
chain: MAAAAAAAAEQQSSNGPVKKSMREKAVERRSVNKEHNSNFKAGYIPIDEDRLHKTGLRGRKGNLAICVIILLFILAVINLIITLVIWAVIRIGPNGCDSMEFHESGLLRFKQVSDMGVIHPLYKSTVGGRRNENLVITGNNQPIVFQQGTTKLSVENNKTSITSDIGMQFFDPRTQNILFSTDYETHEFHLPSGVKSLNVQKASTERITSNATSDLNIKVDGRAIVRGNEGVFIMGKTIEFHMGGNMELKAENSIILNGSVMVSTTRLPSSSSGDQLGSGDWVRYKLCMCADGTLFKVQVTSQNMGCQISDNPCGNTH

# Variants of: B1
# method: SGCB cell-surface expression functional score (HA stain, bin4 vs bin1, normalised to synonymous) (log10 ratio); higher = more cell-surface SGCB (functional)
SGCB cell-surface expression functional score (log10) vs -0.1: at or above is true (1), below is false (0).

1. R174T; true (1)
2. N217E; true (1)
3. S125L; false (0)
4. V136K; true (1)
5. R23F; true (1)

As a next step, examine the variant that follows.
Ask: SGCB cell-surface expression functional score (log10) >= -0.1 for `K111H` ?
Result: true (1)
